# Lookup of reported TGI keyed by entry
# System: NCI-H522 lung
# Measurement protocol: NCI tumour cell line growth inhibition, 48 h
Give the value, in units of µM, as a plain number.

INSERT INTO assay_data (compound, reading) VALUES
  ('N#C/C(=C\c1ccccn1)c1nc2ccccc2o1', 37),
  ('CCOC(=O)C1=C(C)N(Cc2ccccc2)C2(O)C=CC(=O)C3C(=O)N(c4ccccc4)C(=O)C132 (stereo not given)', 3.32),
  ('CN(C)Cc1cc(C(=O)/C=C/c2ccc(Cl)cc2Cl)cc(CN(C)C)c1O', 7.29),
  ('CCOC(=O)c1nc2sc(Cl)cn2c1/C=N/N=C(N)N', 47.1);

Read the next record carefully.
# lookup: TGI of COc1ccc(C(=O)c2no[n+]([O-])c2C(=O)c2ccc(OC)cc2)cc1
0.429

###

# Test system: HL-60(TB) leukemia
# Measurement protocol: NCI tumour cell line growth inhibition, 48 h
Decision: TGI compared against 30 µM; not below it gives Met, below it gives Not met.

hey, is TGI for this one >= 30 µM? CC1=NN(c2ccccc2Cl)C2(C1)C(Cl)C(=O)N2c1nc2ccccc2s1 (stereo unspecified)
Met

Same read-out for O=C1Sc2sc(=S)sc2SC1c1ccccc1 (stereo unspecified) ?
Met

Okay, and CC(=O)OC1C(C)OC(Oc2c(-c3ccc(O)cc3)oc3cc(O)cc(O)c3c2=O)C(O)C1OC(C)=O (stereo unspecified) ?
Met

Same question for Nc1ccc(C(=O)NN2C(=O)C(Cl)C2c2ccc(O)cc2)cc1 (stereo unspecified) please.
Met

What about this molecule? O=C(O)CC(CC(=O)O)n1cccc1
Met

For CS(C)(=O)=Nn1c(=O)n2n(c1=O)[C@H]1CC[C@@H]2C1 then?
Met

Can you handle C#CCNC(CCCN=C(N)N)C(=O)O (stereo unspecified) next?
Met

Record: CCSc1c2cc(OC)ccc2nc2ccc(OC)cc12
Met

Let us now turn to O=C(N/N=C/c1cc(Cl)cc(Cl)c1[O-])c1ccccc1O.O=C(N/N=C/c1cc(Cl)cc(Cl)c1[O-])c1ccccc1O.[Mn+2]
Not met

Here is the next molecule: CCc1n[nH]c(=O)n1N
Met

Follow-up entry: COC(=O)N1C=CC2=C(C)C3Nc4ccccc4C3C(C)=C2C1 (stereo unspecified)
Not met

###

# Test system: HCT-15 colon
# Measurement protocol: NCI tumour cell line growth inhibition, 48 h
Recorded TGI, one value per entry.

Worked examples follow.
INSERT INTO measurements (molecule, system_under_test, measurement_name, reading) VALUES
  ('COC(=O)c1cc2c3cc(Cl)ccc3[nH]c2c2ncccc12', 'HCT-15 colon', 'TGI', '> 100 µM'),
  ('CCOC(=O)CCC(NC(=O)c1ccc(Oc2nc3cc(N)cc(N)c3nc2-c2ccccc2)cc1)C(=O)OCC (stereo unspecified)', 'HCT-15 colon', 'TGI', '> 100 µM'),
  ('O=C(Nc1cccc2[nH]c(C(F)(F)F)nc12)c1ccc(Br)cc1F', 'HCT-15 colon', 'TGI', '14.1 µM'),
  ('COc1cc(C(C)c2cc3c(cc2OCCCCCOc2cc4c(cc2C(C)c2cc(OC)c(OC)c(OC)c2)OCO4)OCO3)cc(OC)c1OC (stereo unspecified)', 'HCT-15 colon', 'TGI', '> 100 µM');

For the molecule shown here, Cc1cc(O)c(C(O)c2ccccn2)cc1O (stereo unspecified) , give the reported TGI.
34.1 µM

Then this molecule: COc1ccc(-c2cc(-c3ccco3)c(C#N)c(=O)n2C2OC(COC(C)=O)C(OC(C)=O)C(OC(C)=O)C2OC(C)=O)cc1 (stereo unspecified)
> 100 µM

Next entry: Nc1ccccc1SC(CC(=O)c1ccccc1)c1c(Cl)cccc1Cl (stereo unspecified)
5.92 µM

###

# System: SK-OV-3 ovarian
# Measurement protocol: NCI tumour cell line growth inhibition, 48 h
Measurement name: TGI

INSERT INTO assay_data (compound, reading) VALUES
  ('COc1cc(C)cc2c1C(=O)C(NC(C)=O)=CC2=O', '> 100 µM');

// TGI lookup, key: COc1cccc(C2=C(c3cn(C)c4c(C)cccc34)C(=O)NC2=O)c1
> 25 µM

Query C=CCC(NCc1ccccc1)c1cn(C(=O)OCC)c2ccccc12 (centres undefined) next
> 100 µM

Queued: c1ccc([P+](Cc2ccc(C[P+](c3ccccc3)(c3ccccc3)c3ccccc3)s2)(c2ccccc2)c2ccccc2)cc1
> 100 µM

###

# Test system: IGROV1 ovarian
# Measurement protocol: NCI tumour cell line growth inhibition, 48 h
Measurement name: TGI

Example results:
INSERT INTO assay_data (compound, reading) VALUES
  ('Cc1ccccc1-c1cc(=O)c2cc(C)c(C)c(C(=O)O)c2o1', '> 100 µM'),
  ('NNC(=O)c1cc(Cl)ccc1NC(=O)C12CC3CC(CC(C3)C1)C2', '> 100 µM'),
  ('COc1ccc(C2=NC(CO)[C@H](c3ccccc3)O2)cc1OC (stereo partly specified)', '> 100 µM'),
  ('COc1ccccc1OC/C(N=Cc1cccnc1)=N/NC(=O)c1ccncc1', '> 100 µM'),
  ('COc1cccc(/C=N/[N+](C)(C)C)c1O', '> 10 µM');

Next:
Which TGI value belongs to N/N=C1\C(=O)N(c2ccc(Cl)c(Cl)c2)C(=O)C1C(=O)Nc1ccc(Cl)c(Cl)c1 (stereo unspecified) ?
> 100 µM

###

Catalogue of TGI readings, one per entry.
# Test system: PC-3 prostate
# Measurement protocol: NCI tumour cell line growth inhibition, 48 h

These recorded examples may help you get a feel for the data.
INSERT INTO results (compound, measurement_name, reading) VALUES
  ('COC(=O)c1cc2c3cc(Cl)ccc3[nH]c2c2ncccc12', 'TGI', '> 100 µM'),
  ('O=c1c2cc([N+](=O)[O-])ccc2[nH]n1Cc1ccccc1Cl', 'TGI', '> 100 µM');

// below: TGI requested for another compound
Can you share its TGI? I mean this compound: CCCCCCCCCCCC(=O)OCC(O)CO (stereo not drawn)
> 100 µM

###

# System: RPMI-8226 leukemia
# Measurement protocol: NCI tumour cell line growth inhibition, 48 h
Measurement name: TGI

INSERT INTO results (molecule, system_under_test, reading) VALUES
  ('O=S(=O)(c1ccccc1)C1(C2(S(=O)(=O)c3ccccc3)CCN=N2)CCN=N1 (stereo not drawn)', 'RPMI-8226 leukemia', '> 100 µM');

State the recorded TGI for this entry: CCC(=O)NC(NNS(=O)(=O)c1ccc(C)cc1)(C(F)(F)F)C(F)(F)F
> 100 µM

// next record CC(C)C[C@H](NC(=O)[C@@H](N)Cc1cccc2ccccc12)B(O)O
< 0.0272 µM

Now give it for O=C(O)CNc1ncc2c(n1)-c1ccccc1OC2 too.
> 100 µM

Nc1ncnc2c1ncn2C1(CO)OC(CO)C(O)C1O (stereo not drawn) , same question.
> 100 µM

And CCN(CC)CCNc1ccc2nc(C)n3c4ccc(OC)cc4c(=O)c1c23 ?
5.34 µM

Another: O=C(c1ccsc1)c1nccc2c1cnc1ccccc12
> 100 µM

Same again, this time with Fc1nc(-c2c3ccccc3c3sc4ccccc4n23)nc(N2CCOCCOCCOCCOCC2)n1
> 100 µM

// same read-out, input: CN(C)Cc1cc(C(=O)/C=C/c2ccc(Cl)cc2Cl)cc(CN(C)C)c1O
> 100 µM

###

# Test system: MCF7 breast
# Measurement protocol: NCI tumour cell line growth inhibition, 48 h; in the data active = GI50 below about 0.43 µM; inactive = the rest
Write down one outcome, taken from active, inactive

Here's what some known entries look like.
INSERT INTO results (compound, label) VALUES
  ('N#C/C(=C\c1ccccn1)c1nc2ccccc2o1', 'inactive'),
  ('COc1cccc2c1C(=O)c1c(O)c3c(c(O)c1C2=O)C[C@@](O)(C(=O)CO)C[C@@H]3OC1CC2C(OCN2CN2COC3C(C)OC(O[C@H]4C[C@](O)(C(=O)CO)Cc5c(O)c6c(c(O)c54)C(=O)c4c(OC)cccc4C6=O)CC32)C(C)O1 (some centres undefined)', 'active'),
  ('O=C(Nc1cccc2[nH]c(C(F)(F)F)nc12)c1ccc(Br)cc1F', 'inactive'),
  ('O=C1C=CC(=O)N1c1ccc2ccccc2c1', 'inactive'),
  ('C[C@H]1CCC/C=C/[C@@H]2C[C@H](O)C[C@H]2[C@H](O)C(O)C(O)C(=O)O1 (some centres undefined)', 'inactive');

Short answer needed: outcome of this test for COC(=O)c1cc2c3cc(Cl)ccc3[nH]c2c2ncccc12 ?
inactive

Okay, and COc1cccc(/C=C2\COc3ccc(O)c(O)c3C2=O)c1OC ?
inactive

Same read-out for C=CCC(NCc1ccccc1)c1cn(C(=O)OCC)c2ccccc12 (centres undefined) ?
inactive

Next compound: O=C(NCCc1nccs1)c1cnc2c(S)cccc2c1
inactive
